// activity coefficient lookup, one value per entry
Test: activity coefficient (dimensionless); of the first substance listed, at infinite dilution; xn = mol fraction of the nth substance listed
Details: 353.15 K; 101 kPa; Liquid; Chromatography; x1 = 0

Compound	activity coefficient
CCO [ethanol] + CCCC[N+]1(C)CCCC1.N#CN=C=[N-]	0.525
CCCCCCC [heptane] + CCCC[N+]1(C)CCCC1.N#CN=C=[N-]	60.9
CCC1CCCCC1 [ethylcyclohexane] + CCCC[N+]1(C)CCCC1.N#CN=C=[N-]	39.6
COC(=O)OC [dimethyl carbonate] + CCCC[N+]1(C)CCCC1.N#CN=C=[N-]	1.33
FC(F)(F)C(Cl)Br (centres undefined) [1-bromo-1-chloro-2,2,2-trifluoroethane] + CCCC[N+]1(C)CCCC1.N#CN=C=[N-]	0.866
CCc1ccccc1 [ethylbenzene] + CCCC[N+]1(C)CCCC1.N#CN=C=[N-]	3.69
CCCCCCCC [octane] + CCCC[N+]1(C)CCCC1.N#CN=C=[N-]	89.2
c1ccsc1 [thiophene] + CCCC[N+]1(C)CCCC1.N#CN=C=[N-]	0.962
CC(C)=O [acetone] + CCCC[N+]1(C)CCCC1.N#CN=C=[N-]	0.986
ClCCl [dichloromethane] + CCCC[N+]1(C)CCCC1.N#CN=C=[N-]	0.655
CC#N [acetonitrile] + CCCC[N+]1(C)CCCC1.N#CN=C=[N-]	0.687
Cc1ccccc1 [toluene] + CCCC[N+]1(C)CCCC1.N#CN=C=[N-]	2.35
C[N+](=O)[O-] [nitromethane] + CCCC[N+]1(C)CCCC1.N#CN=C=[N-]	0.615
c1ccccc1 [benzene] + CCCC[N+]1(C)CCCC1.N#CN=C=[N-]	1.53
CC(C)O [propan-2-ol] + CCCC[N+]1(C)CCCC1.N#CN=C=[N-]	0.724
CO [methanol] + CCCC[N+]1(C)CCCC1.N#CN=C=[N-]	0.348
CCC(C)=O [butanone] + CCCC[N+]1(C)CCCC1.N#CN=C=[N-]	1.35
Cc1cccc(C)c1 [1,3-dimethylbenzene] + CCCC[N+]1(C)CCCC1.N#CN=C=[N-]	3.67
CC1CCCCC1 [methylcyclohexane] + CCCC[N+]1(C)CCCC1.N#CN=C=[N-]	27.1

###

Assay: activity coefficient (dimensionless); of the first substance listed, at infinite dilution; xn = mol fraction of the nth substance listed
Conditions: 323.15 K; 101 kPa; Liquid; Chromatography; x1 = 0
Grouping rule (activity coefficient): lower segment (below 1), middle segment (1 to below 2), upper segment (2 or more)

Molecule	Class Assignment
COCCOC [1,2-dimethoxyethane] + CCCC[N+]1(C)CCCC1.N#CN=C=[N-]	middle segment
Cc1cccc(C)c1 [1,3-dimethylbenzene] + CCCC[N+]1(C)CCCC1.N#CN=C=[N-]	upper segment
COC(C)(C)C [2-methoxy-2-methylpropane] + CCCC[N+]1(C)CCCC1.N#CN=C=[N-]	upper segment
CC1CCCCC1 [methylcyclohexane] + CCCC[N+]1(C)CCCC1.N#CN=C=[N-]	upper segment
ClCCl [dichloromethane] + CCCC[N+]1(C)CCCC1.N#CN=C=[N-]	lower segment
Cc1ccccc1 [toluene] + CCCC[N+]1(C)CCCC1.N#CN=C=[N-]	upper segment
CCCO [propan-1-ol] + CCCC[N+]1(C)CCCC1.N#CN=C=[N-]	lower segment
COC(C)=O [methyl ethanoate] + CCCC[N+]1(C)CCCC1.N#CN=C=[N-]	middle segment
c1ccccc1 [benzene] + CCCC[N+]1(C)CCCC1.N#CN=C=[N-]	middle segment
CCOC(C)=O [ethyl acetate] + CCCC[N+]1(C)CCCC1.N#CN=C=[N-]	upper segment
CCC(C)=O [butanone] + CCCC[N+]1(C)CCCC1.N#CN=C=[N-]	middle segment
CCC1CCCCC1 [ethylcyclohexane] + CCCC[N+]1(C)CCCC1.N#CN=C=[N-]	upper segment
COC(=O)OC [dimethyl carbonate] + CCCC[N+]1(C)CCCC1.N#CN=C=[N-]	middle segment
CCCCCCC [heptane] + CCCC[N+]1(C)CCCC1.N#CN=C=[N-]	upper segment
CC#N [acetonitrile] + CCCC[N+]1(C)CCCC1.N#CN=C=[N-]	lower segment
CC(C)O [propan-2-ol] + CCCC[N+]1(C)CCCC1.N#CN=C=[N-]	lower segment
C1CCCCC1 [cyclohexane] + CCCC[N+]1(C)CCCC1.N#CN=C=[N-]	upper segment
C[N+](=O)[O-] [nitromethane] + CCCC[N+]1(C)CCCC1.N#CN=C=[N-]	lower segment
ClC(Cl)Cl [trichloromethane] + CCCC[N+]1(C)CCCC1.N#CN=C=[N-]	lower segment
